Kindly state % parent compound remaining, Average for each of the entries shown.
test system: pooled human cryopreserved hepatocytes (pHHeps); assay: Metabolic stability, pooled human cryopreserved hepatocyte incubations; details: pHHeps, 9 min
One number for each entry, in %.

Briefly, % parent compound remaining, Average measured for C=CCCCn1nc(C(=O)N[C@@H](C(=O)OC)C(C)(C)C)c2ccccc21 [(R)-MDMB-4en-PINACA (5)] : 70.3

The recorded % parent compound remaining, Average for COC(=O)[C@H](NC(=O)c1nn(CCCCF)c2ccccc12)C(C)(C)C [(R)-4F-MDMB-BINACA (4)] is 91.0

Given item C=CCCCn1cc(C(=O)N[C@H](C(=O)OC)C(C)(C)C)c2ccccc21 [(S)-MDMB-4en-PICA (12)] , the value recorded as its % parent compound remaining, Average is 80.4

State the recorded % parent compound remaining, Average for every item in the following list.
1. COC(=O)C(NC(=O)c1nn(Cc2ccc(F)cc2)c2ccccc12)C(C)C (stereo in doubt) [(R)-AMB-FUBINACA (1)]
2. CCOc1ccc2ccc(=O)oc2c1 [7-ethoxycoumarin, reference compound]
3. COC(=O)[C@@H](NC(=O)c1nn(CCCCF)c2ccccc12)C(C)(C)C [(S)-4F-MDMB-BINACA (4)]
4. COC(=O)[C@H](NC(=O)c1cn(CCCCCF)c2ccccc12)C(C)(C)C [(R)-5F-MDMB-PICA (3)]
5. C=CCCCn1cc(C(=O)N[C@H](C(=O)OC)C(C)C)c2ccccc21 [(S)-AMB-4en-PICA (7)]

Response:
[21.4, 80.0, 69.2, 88.6, 33.2]
